Molecular target: BRD4 BD1 (Homo sapiens, UniProt O60885)
Construct: Protein BRD4 BD1 used in the assay was purchased from Active Motif (cat. 31380)
Test: HTRF in vitro enzyme activity assay, inhibition of BRD4 BD1 binding to acetylated H4 peptide
Conditions: IC50 values of the compounds against BRD4 BD1 binding; class symbols A/B/C
In this section we review reported IC50 values for a set of compounds.

Worked examples, 3 compounds total:
C[C@@H]1C(=O)N(C)c2ccc(N3C(=O)c4ccccc4C3c3ccccn3)nc2N1C (stereo partly shown) [Example A42-P2] : ≤ 0.01 µM
C[C@H]1Oc2nc(N3C(=O)c4sccc4C3c3cccnc3)ccc2N(C)C1=O (single isomer, unassigned) [Example A115-P1] : ≤ 0.01 µM
C[C@H]1Oc2nc(N3C(=O)c4ccccc4C3c3ccc(Cl)nc3)ccc2N(C)C1=O (single isomer, unassigned) [Example A122-P1] : 0.01 to 0.1 µM

Now for the compound whose IC50 we want.
Data request: Can you share its IC50? I mean this compound: CC1C(=O)N(C)c2ccc(N3C(=O)CCC3c3ccccc3)nc2N1C1CCCC1 (single isomer, unassigned) [Example A2-P2-2]
Data returned: ≤ 0.01 µM

Hello, the source for this data is patent US20210261539A1, in case you need it.
